biological target: T1, Human CD27 ECD (ECD 1-173, His6) (human, UniProt P26842 21-193, biotinylated on amine residues (NHS-ester) where used biotinylated); test: Fab ELISA; Fab captured by anti-Fd, biotinylated CD27 ECD at 0.2 nM
T1 construct: also called biotinylated human CD27 ECD
T1 sequence (P26842 other isoform, or with tags, fused parts or gaps limits assumed): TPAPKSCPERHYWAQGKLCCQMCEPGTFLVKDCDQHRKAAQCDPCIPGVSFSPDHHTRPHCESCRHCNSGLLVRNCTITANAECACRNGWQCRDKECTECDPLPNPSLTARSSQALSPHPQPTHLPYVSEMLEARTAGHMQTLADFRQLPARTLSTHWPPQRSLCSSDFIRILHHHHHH
Task for the reader: assign each of the following binders its reported percent binding of the parent.

M69-derived Fab with VL L261 (Fab, V domains shown, clone of library C27L35L2; pairing with parent H28 inferred) VH: EVQLVQSGAEVKKPGESLKISCKGSGYAFSSSWMNWVRQMPGKGLEWMGRIYPGDGDTNYSPSFQGQVTISADKSISTAYLQWSSLKASDTAMYYCARSDYYGDYGFAYWGQGTLVTVSS VL: DIVMTQSPDSLAVSLGERATINCKASQSVDYAGSSFMNWYQQKPGQPPKLLIYEASNLESGVPDRFSGSGSGTDFTLTISSLQAEDVAVYYCQQSNEDPYTFGQGTKLEIK    ≥ 100%

With those in mind, consider the next binder.
Field request: percent binding of the parent | item: M69-derived Fab with VH H244 (Fab, V domains shown, clone of library C27H28L2; pairing with parent L35 inferred) VH: EVQLVQSGAEVKKPGESLKISCKGSGYAFSSSWMNWVRQMPGKGLEWMGRIYSGDGDTNYSPSFQGQVTISADKSISTAYLQWSSLKASDTAMYYCARSDYYGDYGFAYWGQGTLVTVSS VL: DIVMTQSPDSLAVSLGERATINCKASQSVDYAGDSYMNWYQQKPGQPPKLLIYAASNLESGVPDRFSGSGSGTDFTLTISSLQAEDVAVYYCQQSNEDPYTFGQGTKLEIK
≥ 100%
